# target: UniProtKB P11362
# Sequence (P11362 22-822): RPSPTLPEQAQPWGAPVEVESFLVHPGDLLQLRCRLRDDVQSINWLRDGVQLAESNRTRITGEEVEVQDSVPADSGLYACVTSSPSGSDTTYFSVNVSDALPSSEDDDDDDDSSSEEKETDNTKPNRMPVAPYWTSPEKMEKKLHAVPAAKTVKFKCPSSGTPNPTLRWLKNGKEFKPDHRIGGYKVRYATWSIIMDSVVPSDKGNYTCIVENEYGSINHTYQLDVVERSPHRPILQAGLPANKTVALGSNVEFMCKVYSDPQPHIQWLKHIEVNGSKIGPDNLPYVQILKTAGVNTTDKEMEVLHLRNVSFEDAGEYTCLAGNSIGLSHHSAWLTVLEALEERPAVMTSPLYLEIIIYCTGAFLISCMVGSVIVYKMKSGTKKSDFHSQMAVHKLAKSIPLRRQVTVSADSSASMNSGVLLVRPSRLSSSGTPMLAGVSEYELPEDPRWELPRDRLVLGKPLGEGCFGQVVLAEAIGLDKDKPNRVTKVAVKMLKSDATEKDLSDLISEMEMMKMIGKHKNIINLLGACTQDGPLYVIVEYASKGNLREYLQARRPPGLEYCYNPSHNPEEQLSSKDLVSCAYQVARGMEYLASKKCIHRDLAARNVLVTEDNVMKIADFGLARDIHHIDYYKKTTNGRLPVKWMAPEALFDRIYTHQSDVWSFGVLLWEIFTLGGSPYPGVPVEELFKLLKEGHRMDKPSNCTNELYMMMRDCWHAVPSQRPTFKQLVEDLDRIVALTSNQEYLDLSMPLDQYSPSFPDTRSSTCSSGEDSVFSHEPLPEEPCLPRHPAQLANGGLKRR
# assay: FGFR Enzymatic Assay (FRET peptide phosphorylation), FGFR1
# assay_conditions: read-out: FGFR1 IC50; pre-incubated for 4 hours
IC50 listing for selected molecules.
value_kind: IC50

molecule="COc1cc(OC)c(F)c(N2Cc3cnc(-c4cn(C)nc4C)cc3N(c3ccnnc3)C2=O)c1F [Example 57]" target="UniProtKB P11362" data_value="> 200 nM"
molecule="COc1cc(OC)c(F)c(N2Cc3cnc(-c4cn(C)nc4C)cc3N(Cc3cccnn3)C2=O)c1F [Example 88]" target="UniProtKB P11362" data_value="< 10 nM"
molecule="COc1cc(OC)c(F)c(N2Cc3cnc(-c4cncc(C(=O)N5CCOCC5)c4)cc3C3(CC3)C2=O)c1F [Example 13]" target="UniProtKB P11362" data_value="> 200 nM"
molecule="COc1cc(OC)c(F)c(N2Cc3cnc(-c4cncc(N5CCOCC5)c4)cc3C3(CC3)C2=O)c1F [Example 6]" target="UniProtKB P11362" data_value="> 200 nM"
molecule="COc1cc(OC)c(F)c(N2Cc3cnc(-c4cncc(Cl)c4)cc3C3(CC3)C2=O)c1F [Example 11]" target="UniProtKB P11362" data_value="> 200 nM"

Attribution: patent US9708318B2
